- Test system: Drosophila bursicon receptor LGR2 (rickets)
- measurementProtocol: inhibitors of bursicon-induced LGR2 CRE-luciferase signal, primary screen, cell-based, HEK293, CRE-luciferase reporter, bursicon stimulation (AID 720647);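 note: agonist challenge used bursicon conditioned medium at about half maximal strength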
- condition: bursicon-stimulated, 4 h, at 9.99 µM
Among all 380,000 compounds or so, about 1,300 (0.34%) were called active.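 Rule for the calls: active = drop in luminescence signal, shown as inhibition above about 50% in the replicate tests (limit read from the data, passing the limit was not always enough); inconclusive = probably only some replicates passing the limit; inactive = the rest.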 The list comes from a sample in which actives are over-represented; it also holds close analogues and randomly drawn compounds.
Pick one: active, inactive

Task item: GET /call?item= C[C@H]1CCCCO[C@H](CN(C)C(=O)Nc2ccccc2)[C@@H](C)CN([C@@H](C)CO)C(=O)c2cc(NC(=O)CCC(F)(F)F)ccc2O1 returns the recorded outcome of this test.
Reply: inactive

Task item: Same question, CO[C@H]1CN(C)C(=O)c2cc(NC(=O)Nc3ccc4c(c3)OCO4)ccc2OC[C@@H](C)NC[C@@H]1C this time
Reply: inactive

Task item: Likewise for CCc1sc(N2[C@@H](C#N)[C@@H](c3ccccc3-c3ccccc3)[C@@H]2CO)nc1C ?
Reply: inactive

Task item: Now consider COc1ccccc1-c1cn(CC[C@@H]2CC[C@H](NC(=O)c3ccccc3F)[C@H](CO)O2)nn1 .
Reply: inactive

Task item: Okay, and CCOC(=O)C1=C(c2ccc(OC)cc2)C(=O)c2ccccc2C1=O ?
Reply: active

Task item: What would you report for C[C@H](CO)N1C[C@H](C)[C@H](CN(C)C(=O)Nc2ccccc2C(F)(F)F)OCc2cn(nn2)CCCC1=O ?
Reply: inactive

Task item: And O=S(=O)(Nc1ccc(O)c2ccccc12)c1ccc(OC(F)(F)F)cc1 ?
Reply: active

Task item: Could you do the same for O=C(c1ccc(F)cc1)N1CC2(C1)[C@H](c1ccccc1)[C@@H](CO)N2Cc1ccccn1 , please?
Reply: inactive

Task item: Next molecule up: CC(=O)NC(c1ccccc1)c1nc(-c2ccccc2C)cs1 (stereo not given)
Reply: inactive

Task item: What do we get for CC(=O)Nc1ccc(-c2csc(NC(=O)Nc3ccccc3)n2)cc1 ?
Reply: active

Task item: And what about the molecule COc1cccc(/C=N/Nc2cc(C)nc(-c3ccccc3O)n2)c1O ?
Reply: active

Task item: What do you get for CCOC(=O)C1=C(c2ccccc2)NC(=O)NC1c1cc(OC)c(OC)cc1OC (stereo not given) ?
Reply: inactive

Task item: Quick one: C[C@H](CO)N1C[C@H](C)[C@@H](CN(C)Cc2ccccc2)OCCCC[C@H](C)Oc2ccc(NC(=O)Cc3ccccc3)cc2C1=O
Reply: inactive

Task item: Please answer likewise for O=[N+]([O-])c1ccc(NS(=O)(=O)c2ccccc2)c(Cl)c1
Reply: inactive

Task item: Can you handle Cc1cc(C(=O)COC(=O)C2CC2)c(C)n1-c1ccc(F)cc1 next?
Reply: active

----------
- System: Drosophila bursicon receptor LGR2 (rickets)
- measurementProtocol: inhibitors of bursicon-induced LGR2 CRE-luciferase signal, primary screen, cell-based, HEK293, CRE-luciferase reporter, bursicon stimulation (AID 720647);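 note: agonist challenge used bursicon conditioned medium at about half maximal strength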
- condition: bursicon-stimulated, 4 h, at 9.99 µM, stronger effect = higher value
Screen size: about 380,000 compounds; about 1,300 (0.34%) were called active. Only a selection was taken, and actives are over-represented in it overall.
Exercise: for every item that follows, state its recorded inhibition.
Write the value in % as a bare number.

Task item: Test system Drosophila bursicon receptor LGR2 (rickets); read-out inhibition; what value for C=CCn1c(C)cc(C2=NNC(=NCC)SC2)c1C ?
Reply: 84.5

Task item: Also C[C@@H]1CN([C@H](C)CO)C(=O)c2cc(-c3ccccc3)cnc2O[C@H]1CN(C)C(=O)NC1CCCC1 ?
Reply: 9.83

Task item: Same again, this time with Cc1noc(C)c1NC(=O)Nc1ccc2c(c1)C(=O)N([C@@H](C)CO)C[C@@H](C)[C@H](CN(C)Cc1ccc(C(F)(F)F)cc1)O2
Reply: -7.29

Task item: What about Cc1ccc(N2CCN(c3ccc([N+](=O)[O-])cn3)CC2)c(C)c1 ?
Reply: 4.63

Task item: Same thing, different compound: C[C@@H]1CN([C@@H](C)CO)S(=O)(=O)c2ccc(Br)cc2O[C@@H]1CN(C)C(=O)C1CCCCC1
Reply: -1.83

Task item: Param item: C[C@@H]1CN([C@@H](C)CO)S(=O)(=O)c2ccc(C#CCN(C)C)cc2O[C@H]1CN(C)C(=O)C1CC1
Reply: 6.68

Task item: Now give it for COc1cncc(-c2cnc3sc(NCCc4ccccn4)nn23)c1 too.
Reply: 20.8

Task item: Param item: CO[C@H](CN(C)C(=O)c1cnccn1)[C@@H](C)CN([C@@H](C)CO)S(=O)(=O)c1ccccc1
Reply: -6.19

Task item: Entry to check: CC(C)CC#Cc1cnc2c(c1)C(=O)N([C@H](C)CO)C[C@H](C)[C@@H](CN(C)Cc1ccccc1C(=O)O)O2
Reply: 9.07

Task item: Try the compound CC(C)NC(=O)N(C)C[C@H]1OCCCC[C@H](C)Oc2ccc(NC(=O)CCC(F)(F)F)cc2C(=O)N([C@H](C)CO)C[C@H]1C
Reply: 1.7

Task item: Same lookup for COc1cccc(C(NC(C)=O)c2nc(-c3ccccc3OC)cs2)c1 (configuration not stated) , please.
Reply: -5.66

Task item: Could you do the same for CC(=O)Nc1cccc(C(=O)OCC(=O)c2ccc3c(c2)OCO3)c1 , please?
Reply: 63.3

Task item: Next compound up: O=C1COc2ccc(C(=O)COC(=O)c3ccccc3Cl)cc2N1
Reply: -31.2

Task item: Same question for Cn1cnc(C(F)(F)F)c1-c1ccc([N+](=O)[O-])cc1 please.
Reply: -7.43

Task item: Again, but for Cc1cnc(NC(=O)c2ccccn2)s1
Reply: 59.5

Task item: Request: COc1ccc(CC(=O)NCc2nnc(SCC(=O)Nc3ncc(C)s3)n2C)cc1
Reply: 8.94

Task item: Now try C[C@H]1CN([C@@H](C)CO)C(=O)c2cc(C3=CCCCC3)cnc2O[C@@H]1CN(C)C(=O)c1ccc(F)cc1 .
Reply: 2.17

Task item: Thanks! And Cc1ccc(S(=O)(=O)NCC[C@@H]2CC[C@@H](NC(=O)CCN3CCCCC3)[C@@H](CO)O2)cc1 ?
Reply: 3.54

Task item: Proceed to CCC(=O)N1CC[C@H]2[C@@H]1c1cc(-c3ccc(C#N)cc3)ccc1N(C)[C@H]2CO
Reply: -10.9

Task item: Can you check COc1ccc2c3c(n(C)c2c1)[C@H](CO)NCC31CCN(C(=O)Nc2ccccc2F)CC1 next?
Reply: -4.04

Task item: What about this compound? O=C(C[C@H]1C[C@@H]2c3cc(NC(=O)CC4CC4)ccc3O[C@@H]2[C@H](CO)O1)NCc1cccnc1
Reply: 2.45

Task item: Ok, now CC(C)NC(=O)Nc1ccc2c(c1)CC(=O)N([C@H](C)CO)C[C@@H](C)[C@@H](CN(C)C(=O)Nc1ccc3c(c1)OCO3)O2
Reply: -3.26

Task item: Next compound: COCC(=O)N1CCCCN2[C@H](CO)[C@H](c3ccc(C#Cc4ccc(OC)cc4)cc3)[C@H]2C1
Reply: -13.1

Task item: What do you get for COc1cccc(-c2ccc3c(c2)O[C@H](CN(C)C(=O)C2CCOCC2)[C@H](C)CN([C@H](C)CO)S3(=O)=O)c1 ?
Reply: -17.4

Task item: Input COc1ccc(-c2ccccc2[C@H]2[C@@H](CO)N(C(=O)C3CCC3)[C@H]2C#N)cc1
Reply: 3.46

Task item: Similarly, Cc1nc(-c2ccccc2)cn2c1nc1ccccc12 ?
Reply: 3

Task item: Can you handle Cc1ccc(-c2cn3cc(C)ccc3n2)cc1 next?
Reply: 102

Task item: How about this compound: C[C@H]1CN([C@@H](C)CO)C(=O)c2cc(NC(=O)Cn3cnnn3)ccc2O[C@H]1CN(C)C(=O)NC1CCCCC1
Reply: -0.859

Task item: Next compound: Cc1ccc(-c2cn3cc([N+](=O)[O-])ccc3n2)cc1
Reply: 67.1

Task item: Now consider COc1ccc(S(=O)(=O)N(C)C[C@@H]2Oc3c(NS(=O)(=O)c4ccccc4)cccc3C(=O)N([C@@H](C)CO)C[C@@H]2C)cc1 and answer again.
Reply: -7.82

Task item: And COc1ccc(-c2csc(Nc3ccccn3)n2)cc1 ?
Reply: 78.5

Task item: Now consider Cc1noc(C)c1NC(=O)Nc1ccc2c(c1)C(=O)N([C@@H](C)CO)C[C@@H](C)[C@H](CN(C)C(=O)NC(C)C)O2 .
Reply: 9.15

Task item: Moving on to Cc1ccc2nc(-c3ccc(Br)cc3)cn2c1
Reply: 96.2

Task item: Queued: CCOc1ccc(NCCC(=O)c2ccc3c(c2)OCO3)cc1
Reply: -15.9

Task item: Proceed to COc1ccc(S(=O)(=O)N(C)C[C@H]2OCCCC[C@H](C)Oc3ccc(NC(=O)Nc4ccc5c(c4)OCO5)cc3C(=O)N([C@@H](C)CO)C[C@@H]2C)cc1
Reply: 21.6

Task item: Proceed to COc1ccc(S(=O)(=O)N[C@H]2C=C[C@@H](CC(=O)O)O[C@@H]2CO)cc1
Reply: 14.6

Task item: Moving on to CCOc1cc(C(=O)OCC(=O)Nc2cccc(C)c2)ccc1OCC(=O)N1CCOCC1
Reply: 16.2
